# assay procedure: In vivo pharmacokinetic study
# condition label: Sprague-Dawley, rat, plasma, po; i.g. 10 mg/kg, male SD rats
attribute measured: Cmax
Please provide the amount together with its unit, number first.

### Prompt Bench note: what Cmax did `O=C(CCCCCCNC(=O)c1cc(OCCc2ccccc2)c2ccccc2n1)NO` show?
### Response 659 ng/mL

###

# System: MDA-MB-231
# assay procedure: CCK-8 antiproliferation assay
# Type: cell-based, human
# condition label: Homo sapiens, MDA-MB-231; 48 h treatment, CCK-8
attribute measured: pIC50
In plain terms, pIC50 is the concentration in mol/L turned into minus its base-10 logarithm.

### Prompt Bench note: what pIC50 did `O=C(CCCCCCNC(=O)c1cc(OCCc2ccccc2)c2ccccc2n1)NO` show?
### Response 6.33

###

# Tested on: PC-3
# assay procedure: CCK-8 antiproliferation assay
# Type: cell-based
# condition label: Homo sapiens, 48 h treatment
attribute measured: IC50 (nM)
Please reply with the bare figure in nM and do not write the unit itself.

### Prompt Bench note: what IC50 did `O=C(CCCCCCNC(=O)c1cc(OCCc2ccccc2)c2ccccc2n1)NO` show?
### Response 620

###

# assay procedure: In vivo pharmacokinetic study
# condition label: Sprague-Dawley, rat, plasma, iv; i.v. 2.5 mg/kg, male SD rats
attribute measured: Tmax (min)
Please reply with the bare figure in min and do not write the unit itself.

### Prompt Bench note: what Tmax did `O=C(CCCCCCNC(=O)c1cc(OCCc2ccccc2)c2ccccc2n1)NO` show?
### Response 4.8

###

# Test system: HDAC3/NCOR1 complex
# assay procedure: HDACs enzymatic assay HDAC3
# Format: biochemical
# condition label: Class I; mean ± SD of three
attribute measured: IC50 (nM)
Please reply with the bare figure in nM and do not write the unit itself.

### Prompt Bench note: what IC50 did O=C(CCCCCCC(=O)Nc1ccccc1)NO [SAHA, Vorinostat, reference compound] show?
### Response 45

###

# study target: HDAC11 (Homo sapiens)
# Sequence (Q96DB2 whole entry): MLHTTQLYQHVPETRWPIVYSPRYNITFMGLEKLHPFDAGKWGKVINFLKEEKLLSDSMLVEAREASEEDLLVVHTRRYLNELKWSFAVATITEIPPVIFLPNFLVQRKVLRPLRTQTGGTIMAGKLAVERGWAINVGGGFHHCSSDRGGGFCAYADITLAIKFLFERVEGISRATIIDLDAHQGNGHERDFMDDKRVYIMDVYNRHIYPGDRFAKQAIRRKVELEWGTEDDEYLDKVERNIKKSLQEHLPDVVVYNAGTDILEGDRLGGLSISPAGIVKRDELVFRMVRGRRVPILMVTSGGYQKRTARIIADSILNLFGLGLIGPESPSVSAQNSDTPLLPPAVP
attribute measured: IC50

### Prompt Bench note: what IC50 did `O=C(CCCCCCNC(=O)c1cc(OCCc2ccccc2)c2ccccc2n1)NO` show?
### Response > 10 µM

###

# assay procedure: In vitro metabolic assay, mouse liver microsomes
# Assay type: in vitro ADME
# condition label: mouse, microsomes
attribute measured: microsomal CLint
Please provide the amount together with its unit, number first.

### Prompt Bench note: what microsomal CLint did O=C(CCCCCCNC(=O)c1cc(OCCc2ccccc2)c2ccccc2n1)NO [SDFZ-8] show?
### Response 56.3 µL/min/mg

###

# assay procedure: In vivo pharmacokinetic study
# condition label: Sprague-Dawley, rat, plasma, iv; i.v. 2.5 mg/kg, male SD rats
attribute measured: AUC(0-inf) (ng·h/mL)
Please reply with the bare figure in ng·h/mL and do not write the unit itself.

### Prompt Bench note: what AUC(0-inf) did `O=C(CCCCCCNC(=O)c1cc(OCCc2ccccc2)c2ccccc2n1)NO` show?
### Response 3120

###

# Tested on: Jurkat
# assay procedure: CCK-8 antiproliferation assay
# Format: cell-based
# condition label: Homo sapiens, 48 h treatment
# Protocol: Cell lines purchased from the Cell Bank of Type Culture Collection of the Chinese Academy of Sciences (Shanghai, China) were passaged after resuscitation. […] The third to tenth passages of cells were used for experiments. […] Two hours later, absorption was measured by a Varioskan plate at 450 nm. Inhibition curves and IC50 values were simulated and calculated using the log(inhibitor) versus response (three parameters) mode via GraphPad Prism software.
attribute measured: pIC50
In plain terms, pIC50 is the concentration in mol/L turned into minus its base-10 logarithm.

### Prompt Recorded pIC50 for `O=C(CCCCCCNC(=O)c1cc(OCCc2ccccc2)c2ccccc2n1)NO` with Jurkat, please?
### Response 7.05

###

# assay procedure: In vivo pharmacokinetic study
# condition label: Sprague-Dawley, rat, plasma, po; i.g. 10 mg/kg, male SD rats
attribute measured: half-life (h)
Please reply with the bare figure in h and do not write the unit itself.

### Prompt Bench note: what half-life did `O=C(CCCCCCNC(=O)c1cc(OCCc2ccccc2)c2ccccc2n1)NO` show?
### Response 5.74

###

# study target: UniProt:Q9UQL6
# Sequence (Q9UQL6 whole entry): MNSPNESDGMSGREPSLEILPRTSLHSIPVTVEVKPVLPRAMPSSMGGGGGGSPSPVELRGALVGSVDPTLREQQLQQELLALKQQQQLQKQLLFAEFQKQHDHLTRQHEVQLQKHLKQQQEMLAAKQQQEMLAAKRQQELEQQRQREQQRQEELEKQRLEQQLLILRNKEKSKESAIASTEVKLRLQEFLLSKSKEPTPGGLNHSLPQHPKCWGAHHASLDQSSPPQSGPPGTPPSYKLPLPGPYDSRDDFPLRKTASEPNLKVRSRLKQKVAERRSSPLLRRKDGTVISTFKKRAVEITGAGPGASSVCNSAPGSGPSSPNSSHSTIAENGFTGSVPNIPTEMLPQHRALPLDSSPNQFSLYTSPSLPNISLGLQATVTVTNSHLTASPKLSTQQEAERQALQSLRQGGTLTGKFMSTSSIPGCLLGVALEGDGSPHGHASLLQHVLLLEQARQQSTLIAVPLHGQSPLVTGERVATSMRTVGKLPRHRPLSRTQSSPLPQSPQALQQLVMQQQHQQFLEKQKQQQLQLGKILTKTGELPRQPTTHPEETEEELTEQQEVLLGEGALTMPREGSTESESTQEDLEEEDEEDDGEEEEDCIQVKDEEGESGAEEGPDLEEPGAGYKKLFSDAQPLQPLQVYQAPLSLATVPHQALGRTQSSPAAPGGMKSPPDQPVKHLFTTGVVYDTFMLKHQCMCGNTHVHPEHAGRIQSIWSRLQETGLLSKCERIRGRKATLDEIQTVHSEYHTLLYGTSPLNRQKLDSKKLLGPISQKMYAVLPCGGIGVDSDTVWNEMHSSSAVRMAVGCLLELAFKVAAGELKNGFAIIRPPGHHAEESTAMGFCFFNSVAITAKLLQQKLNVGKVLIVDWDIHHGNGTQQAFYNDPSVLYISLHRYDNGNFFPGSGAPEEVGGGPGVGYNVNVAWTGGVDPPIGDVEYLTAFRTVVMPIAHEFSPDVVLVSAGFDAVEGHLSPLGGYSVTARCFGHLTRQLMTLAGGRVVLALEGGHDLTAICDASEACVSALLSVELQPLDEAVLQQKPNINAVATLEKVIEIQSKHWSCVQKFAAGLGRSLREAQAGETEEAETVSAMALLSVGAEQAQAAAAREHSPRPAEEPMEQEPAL
attribute measured: IC50

### Prompt Recorded IC50 for `O=C(CCCCCCNC(=O)c1cc(OCCc2ccccc2)c2ccccc2n1)NO` with UniProt:Q9UQL6, please?
### Response > 10 µM
